- Tested on: HOP-62 multicell spheroids with HUVEC/MSC, viability
- ASSAY METHOD TEXT: Anticancer human tumor HOP-62 cell line growth inhibition [KRAS2];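 further: viability read after a week of compound exposure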
- CONDITIONS USED: second compound 1 µM; first compound 0.1 µM; stronger effect = lower value
The label true is reserved for viability, T/C strictly under 20%; false covers values equal to or above it.

- CCNC(=O)CC1N=C(c2ccc(Cl)cc2)c2cc(OC)ccc2-n2c(C)nnc21 (stereo unspecified) + COc1cc2nc(C)nc(NC(C)c3cc(N)cc(C(F)(F)F)c3)c2cc1OC1CCOC1: false
- Cn1ncnc1[C@H]1c2n[nH]c(=O)c3cc(F)cc(c23)N[C@@H]1c1ccc(F)cc1 + CC1OCC2(CCN(c3cnc(Sc4ccnc(N)c4Cl)c(N)n3)CC2)C1N: false
- O=C(c1cc(Cc2n[nH]c(=O)c3ccccc23)ccc1F)N1CCN(C(=O)C2CC2)CC1 + CC1OCC2(CCN(c3cnc(Sc4ccnc(N)c4Cl)c(N)n3)CC2)C1N: false
- CC1COCCN1c1cc(-c2ccnn2C)c2ccnc(-c3ccn[nH]3)c2n1 (stereo unspecified) + C=CC(=O)N1CCN(c2nc(=O)n(-c3c(C)ccnc3C(C)C)c3nc(-c4c(O)cccc4F)c(F)cc23)C(C)C1: true
- CC(C)NCC(C(=O)N1CCN(c2ncnc3c2C(C)CC3O)CC1)c1ccc(Cl)cc1 (stereo unspecified) + CC1OCC2(CCN(c3cnc(Sc4ccnc(N)c4Cl)c(N)n3)CC2)C1N: false
- CC(C)n1nc(-c2ccc3oc(N)nc3c2)c2c(N)ncnc21 + CC1OCC2(CCN(c3cnc(Sc4ccnc(N)c4Cl)c(N)n3)CC2)C1N: true
